TARGET_OF_ASSAY: Protein kinase C eta type (Homo sapiens);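 also: value is the mean inhibition, from GSK PKIS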
ASSAY_CONDITIONS: at 1 µM
READOUT_KIND: inhibition
Units required after the number.

-- ask Give inhibition for the following molecule: N#Cc1ccc2c(-c3ccnc(NC4CC4)n3)c(-c3ccc(F)cc3)nn2c1
-- reply 0.36%

* * *

TARGET_OF_ASSAY: Proto-oncogene tyrosine-protein kinase Src (Homo sapiens)
ASSAY_CONDITIONS: at 1 µM
READOUT_KIND: inhibition (%)
The response must be a number in % with no trailing unit.

The cases that follow already have their inhibition on record.
COc1ccc2ncn(-c3cc(O[C@H](C)c4ccccc4C(F)(F)F)c(C(N)=O)s3)c2c1 ... -0.06
NS(=O)(=O)c1cccc(N/C=C2\C(=O)Nc3ccccc32)c1 ... 12.9

-- ask Please report the measured inhibition for CNC(=O)c1cncc(/C=C/c2ccccc2C)c1 tested on Proto-oncogene tyrosine-protein kinase Src (Homo sapiens).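 Also: each value is an averaged percent inhibition of SRC.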
-- reply 13.7

Where do the numbers come from? From ChEMBL document CHEMBL1961873.
